Source: the NIST ThermoML archive (doi:10.1016/j.jct.2018.02.010)

conditions: 298.15 K; 101.3 kPa; Liquid mixture 1; spinning drop method
Reported interfacial tension values follow for various compounds
Give your result in mN/m as a bare value.

The examples below pair each entry with its known result.
CCCC(=O)OC [methyl butanoate] + O
11.1
COC(C)=O [methyl ethanoate] + O
1.66
CCC(=O)OC [methyl propanoate] + O
7.69
CCCCCC(=O)OC [methyl hexanoate] + O
15.5
CCCCCCC(=O)OC [methyl heptanoate] + O
16.7

Next, consider the following compound.
Q: Indicate the recorded interfacial tension value for this compound: CCCCC(=O)OC [methyl pentanoate] + O
Ans: 14.1

----------
conditions: 328.15 K; 101.3 kPa; Liquid mixture 1; spinning drop method
// reported interfacial tension per item
Numeric only. Scale: mN/m

Example compounds with recorded interfacial tension:
COC(C)=O [methyl ethanoate] + O
0.75
CCC(=O)OC [methyl propanoate] + O
6.63
CCCCC(=O)OC [methyl pentanoate] + O
13.7

Q: Complete the entry with interfacial tension for CCCCCC(=O)OC [methyl hexanoate] + O
Ans: 15.7

Q: Consider the compound CCCCCCC(=O)OC [methyl heptanoate] + O . State its measured interfacial tension.
Ans: 17.6

Q: Please list interfacial tension recorded for the compound CCCC(=O)OC [methyl butanoate] + O
Ans: 10.6
